experimental-details: solvent given as SMILES
assay-conditions: in Cc1ccccc1
Values of emission maximum greater than or equal to 500 nm map to Condition met; values below map to Condition not met.

>>> df
                               entry_smiles  qualitative_label
0  CC1=CC(C)=[N+]2C1=C(c1ccccc1)c1c(C)cc(C)n1[B-]2(F)F      Condition met

Please indicate if the recorded emission maximum for `c1cc2cc(c1)c1cccc(c1)c1ccc3ccc4ccc(cc4c3c1)c1cccc(c1)c1cccc2c1` meets or exceeds 500 nm.
Condition not met

Next record, please: `CC1(C)c2ccccc2N(c2ccc3c(c2)c(=O)c2cccc4c(=O)c5cc(N6c7ccccc7C(C)(C)c7ccccc76)ccc5n3c24)c2ccccc21`
Condition met

Next record, please: `O=C(O)COc1ccc2[nH]c3c(c2c1)CCCC3=O`
Condition not met

Next record, please: `Cc1cc(C)c(B(c2c(C)cc(C)cc2C)N2c3ccccc3C(C)(C)c3ccccc32)c(C)c1`
Condition met

* * *

experimental-details: solvent given as SMILES
assay-conditions: in ClCCl
Parameter: emission maximum. Scope: all listed entries.
// units = nm; emit number, no label

Examples from the recorded data:
>>> df
                                   compound     readout_label  test_result
0  CCOc1cc2c(cc1/C=C/C1=CC(=C(C#N)C#N)CC(C)(C)C1)c1ccccc1n2CC  emission maximum          617
1  CCc1c(C)c2n(c1C)[B-](F)(F)[N+]1=C(NCc3ccc(OC)cc3)C=CC1=C2C  emission maximum          551
2       COc1ccc(-c2ccc(-c3ccc(C#N)s3)s2)cc1  emission maximum          468
3  Cc1cc(C)c(B(c2ccc(-c3ccc(-c4nc5c6ccccc6c6ccccc6c5[nH]4)cc3)cc2)c2c(C)cc(C)cc2C)c(C)c1  emission maximum          469

If you can, please state the reported emission maximum value of `CC(C)[Si](C#Cc1c2ccccc2c(C#C[Si](C(C)C)(C(C)C)C(C)C)c2nc3ccccc3nc12)(C(C)C)C(C)C` .
609

Next record, please: `CC(C)CCCCN1CCc2c1ccc1c3c(ccc21)C(=O)CCC3`
472

Next record, please: `c1ccc(-c2nc(-c3ccccc3)nc(-c3cc(-n4c5ccccc5c5ncccc54)c(-n4c5ccccc5c5ccccc54)c(-n4c5ccccc5c5ncccc54)c3)n2)cc1`
502.79

Next record, please: `CC(C)(C)Nc1c(-c2ccc(-c3cc(=O)cc(-c4ccccc4)o3)cc2)nc2ccccn12`
515

Next record, please: `c1ccc(N2c3ccccc3Sc3cc(-c4cccc5nc6ccccc6cc45)ccc32)cc1`
483

Next record, please: `c1ccc(-c2nc(-c3ccccc3)nc(-c3ccc(-n4c5ccccc5c5cc6c(cc54)C(c4ccccc4)(c4ccccc4)c4ccccc4-6)cc3)n2)cc1`
519.15

* * *

experimental-details: solvent given as SMILES
assay-conditions: in ClC(Cl)Cl
Parameter: emission maximum. Scope: all listed entries.
// units = nm; emit number, no label

Examples from the recorded data:
molecule	test-result
CC(C)(C)c1cc2ccc3cc(C(C)(C)C)cc4c3c2c(c1)c(=O)n1c4nc2c3cc(C(C)(C)C)cc4ccc5cc(C(C)(C)C)cc(c5c43)c21	551
O=C1NC(=O)c2ccc(N3CCOCC3)c3cccc1c23	504
CCCCCCN(c1ccccc1)c1ccc(/C=C/c2cc(=O)oc3cc(C)ccc23)cc1	544
c1ccc2c(-c3ccc(-n4c5ccccc5c5ccccc54)cc3)c3c(nc2c1)-c1cc2c(cc1CC3)-c1nc3ccccc3c(-c3ccc(-n4c5ccccc5c5ccccc54)cc3)c1CC2	385

If you can, please state the reported emission maximum value of `O=C1c2cc(-n3c4ccccc4c4ccccc43)ccc2S(=O)(=O)c2ccc(-n3c4ccccc4c4ccccc43)cc21` .
606

Next record, please: `O=Cc1ccc(C#CC(C#Cc2ccc(C=O)s2)=Cc2ccc(C=C(C#Cc3ccc(C=O)s3)C#Cc3ccc(C=O)s3)cc2)s1`
533

Next record, please: `CCCCCCCCCCCCOc1cc2c3cc(OCCCCCCCCCCCC)c(OCCCCCCCCCCCC)cc3c3c(cc(OCCCCCCCCCCCC)c4nc5cc(C#Cc6ccc(OCCCC)cc6)c(C#Cc6ccc(OCCCC)cc6)cc5nc43)c2cc1OCCCCCCCCCCCC`
661

* * *

experimental-details: solvent given as SMILES
assay-conditions: in CN(C)C=O
readout-label: emission maximum

                               entry_smiles     readout_label  test_result
0  CCn1c2ccccc2c2cc(-c3cc(-c4ccc5c(c4)c4ccccc4n5CC)nc(-c4ccc(C#N)cc4)n3)ccc21  emission maximum       422 nm
1  O=C1NC(=O)c2ccc3c4ccc5c6c(ccc(c7ccc1c2c73)c64)C(=O)N(c1ccc(Cl)cc1)C5=O  emission maximum       536 nm
2             Cc1ccc(NC(=O)c2sc(Br)nc2C)cc1  emission maximum       451 nm
3                 CCN(CC)c1ccc2ccc(=O)oc2c1  emission maximum       440 nm
4     CN(C)c1ccc(/C=C/C=C/c2nc3ccccc3s2)cc1  emission maximum       567 nm

If you can, please state the reported emission maximum value of `CCn1c2ccccc2c2cc(/C=C/C(=O)c3ccc4c(c3)c3cc(C(=O)/C=C/c5ccc6c(c5)c5ccccc5n6CC)ccc3n4CC)ccc21` .
487 nm

Next record, please: `CCn1c2ccccc2c2cc(-c3cc(-c4ccc5c(c4)c4ccccc4n5CC)nc(C#N)n3)ccc21`
455 nm

Next record, please: `CCN1c2ccc(-c3cc(C(F)(F)F)[nH]n3)cc2Sc2cc(-c3cc(C(F)(F)F)[nH]n3)ccc21`
464 nm

Next record, please: `O=C1c2ccccc2C(=O)N1c1ccc(Cn2cncn2)cc1`
503 nm

* * *

experimental-details: solvent given as SMILES
assay-conditions: in ClCCl
readout-label: emission maximum (nm)
// units = nm; emit number, no label

compound	readout-label	test-result
COc1ccc2cc(C3=[N+]4C(=Nc5c(-c6ccccc6)cc(-c6ccc7cc(OC)ccc7c6)n5[B-]4(F)F)C(c4ccccc4)=C3)ccc2c1	emission maximum	733
N#CC(C#N)=Cc1ccc2c(c1)c1cc(C=C(C#N)C#N)ccc1n2-c1cccc2ccccc12	emission maximum	453
CCN(CC)c1ccc2c(c1)oc(=O)c1c(C)nc3c(c(-c4ccccc4)nn3C)c12	emission maximum	461
CN(C)c1ccc(C2=Nc3scc(-c4ccc([N+](=O)[O-])cc4)[n+]3[B-](F)(F)O2)cc1	emission maximum	454
CN(c1ccccc1)c1ccc(/C=C2\C(=O)c3ccccc3S2(=O)=O)cc1	emission maximum	547
CCCCN(CCCC)c1ccc2c(c1)C#CC#Cc1cc(C(F)(F)F)ccc1C#Cc1cc(c3cc1C#Cc1ccc(C(F)(F)F)cc1C#CC#Cc1cc(N(CCCC)CCCC)ccc1C#C3)C#C2	emission maximum	550
CCOC(=O)c1ccc(C2=Cc3ccccc3P2(=O)c2ccccc2)cc1 (stereo unspecified)	emission maximum	425
CCn1c2ccccc2c2cc(C#Cc3cc(C#Cc4ccc5c(c4)c4ccccc4n5CC)ncn3)ccc21	emission maximum	484
FC(F)(F)c1cc2n(n1)[B-]1(c3ccccc3Oc3ccccc31)[n+]1ccc3ccccc3c1-2	emission maximum	543
Cc1ccc(-c2c3nc(c(-c4ccc(C)cc4)c4ccc([nH]4)c(-c4ccc(OC(=O)C(C)c5ccc(Oc6ccccc6)cc5)cc4)c4nc(c(-c5ccc(C)cc5)c5ccc2[nH]5)C=C4)C=C3)cc1 (stereo unspecified)	emission maximum	653

If you can, please state the reported emission maximum value of `CCCCCCN1C(=O)c2cccc3c(-c4ccc(-c5cc(-c6ccc(C)cc6)nn5-c5ccccc5)s4)ccc(c23)C1=O` .
519

Next record, please: `F[B-]1(F)n2c(nc(-c3ccccc3)c2-c2ccccc2)-c2cccc[n+]21`
528

Next record, please: `c1ccc2c(c1)c1ccccc1n2-c1ccc2c(c1)c1ccccc1n2-c1ccc(-n2c3ccccc3c3cc(-n4c5ccccc5c5ccccc54)ccc32)cc1`
383

Next record, please: `[O-][n+]1c(/C=C/c2ccccc2)nc(N2CCOCC2)c2c1CCCC2`
535

Next record, please: CCOC(=O)C1=C(C(=O)OCC)C2(c3cc(Cl)ccc3-c3ccc(Cl)cc32)C2(/C=C/c3ccccc3)c3cc(OC)c(OC)cc3CCN12 (stereo unspecified)
456

Next record, please: `CCn1c2ccccc2c2cc(-c3cc(-c4ccc5c(c4)c4ccccc4n5CC)nc(N4CCCCC4)n3)ccc21`
414

* * *

experimental-details: solvent given as SMILES
assay-conditions: in ClCCl
readout-label: emission maximum (nm)
// units = nm; emit number, no label

compound	unit-abbrev	emission maximum
CC(C)(C)c1ccc(-c2nc3c4ccc(-c5ccc6ccc7cccc8ccc5c6c78)cc4c4cc(-c5ccc6ccc7cccc8ccc5c6c78)ccc4c3n2-c2ccc(C(C)(C)C)cc2)cc1	nm	450

If you can, please state the reported emission maximum value of `O=C1Nc2ccccc2/C1=C/C(=O)c1ccccc1` .
398

Next record, please: `COc1cc(OC)cc(C2=[O+][B-](F)(F)OC(c3ccc4ccccc4c3)=C2)c1`
560

Next record, please: `CC1=NN(c2ccccc2)C(=O)/C1=C/c1cn(-c2ccccc2)nc1-c1ccccc1`
436
